target: T1, full-length trimeric SARS-CoV-2 Spike protein (Spike-H6) (SARS-CoV-2, N-glycosylated (22 N-glycosylation sites)); assay: ELISA screen
T1 construct: also called trimeric Spike; full-length Spike-H6
Reported Mean normalized OD by item:

BINDER: Mrc2_2 CRD-mouse IgG2a-Fc fusion protein (Fc fusion) FQGHCYRLQAEKRSWQESKRACLRGGGDLLSIHSMAELEFITKQIKQEVEELWIGLNDLKLQMNFEWSDGSLVSFTHWHPFEPNNFRDSLEDCVTIWGPEGRWNDSPCNQSLPSICKGGGSGGGSGGGS
Mean normalized OD: 0.017 OD

Form field: reported Mean normalized OD of Klrg1 CRD-mouse IgG2a-Fc fusion protein (Fc fusion) NGSHCYYFSMEKKDWNSSLKFCADKGSHLLTFPDNQGVKLFGEYLGQDFYWIGLRNIDGWRWEGGPALSLRILTNSLIQRCGAIHRNGLQASSCEVALQWICKGGGSGGGSGGGS
0.003 OD

Form field: reported Mean normalized OD of Ly75_2 CRD-mouse IgG2a-Fc fusion protein (Fc fusion) NNGFCYLLANESSSWDAAHLKCKAFGADLISMHSLADVEVVVTKLHNGDVKKEIWTGLKNTNSPALFQWSDGTEVTLTYWNENEPSVPFNKTPNCVSYLGKLGQWKVQSCEKKLRYVCKGGGSGGGSGGGS
-0.319 OD

Form field: reported Mean normalized OD of Lgals8_1 CRD-mouse IgG2a-Fc fusion protein (Fc fusion) YVGTITEQLKPGSLIVIRGHVPKDSERFQVDFQLGNSLKPRADVAFHFNPRFKRSSCIVCNTLTQEKWGWEEITYDMPFRKEKSFEIVFMVLKNKFQVAVNGRHVLLYAHRISPEQIDTVGIYGKVNIHSIGFRGGGSGGGSGGGS
0.019 OD

Data credit: patent EP4039268A1
